# pIC50 annotations
TARGET_ENTITY: fibroblast activation protein (FAP) (Homo sapiens, UniProt Q12884)
Sequence (Q12884 whole entry): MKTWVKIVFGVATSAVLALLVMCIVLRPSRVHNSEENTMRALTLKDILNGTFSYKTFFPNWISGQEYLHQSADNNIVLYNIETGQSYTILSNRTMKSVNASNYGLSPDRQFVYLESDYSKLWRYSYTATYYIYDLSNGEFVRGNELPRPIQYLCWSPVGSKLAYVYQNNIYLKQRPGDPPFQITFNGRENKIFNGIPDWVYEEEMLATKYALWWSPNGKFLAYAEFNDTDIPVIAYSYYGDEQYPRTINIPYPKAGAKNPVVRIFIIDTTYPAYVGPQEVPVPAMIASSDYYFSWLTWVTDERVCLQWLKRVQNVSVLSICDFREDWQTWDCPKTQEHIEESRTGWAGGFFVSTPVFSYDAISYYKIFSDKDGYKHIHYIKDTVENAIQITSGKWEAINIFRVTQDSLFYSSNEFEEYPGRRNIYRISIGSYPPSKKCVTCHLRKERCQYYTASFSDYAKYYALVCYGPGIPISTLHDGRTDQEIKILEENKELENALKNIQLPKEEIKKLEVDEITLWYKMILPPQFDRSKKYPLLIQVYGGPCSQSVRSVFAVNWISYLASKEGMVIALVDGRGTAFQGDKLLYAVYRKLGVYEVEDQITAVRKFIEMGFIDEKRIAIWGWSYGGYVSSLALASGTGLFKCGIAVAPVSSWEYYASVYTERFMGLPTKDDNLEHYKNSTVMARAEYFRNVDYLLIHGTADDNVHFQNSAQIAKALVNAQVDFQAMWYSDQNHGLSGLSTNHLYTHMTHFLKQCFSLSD
ASSAY_DETAILS: Protease inhibition (selectivity) assay, FAP, Z-Gly-Pro-AMC substrate
MEASUREMENT_CONDITIONS: recombinant human FAP 1.2 nM
pIC50: −log10 of the molar value. Numbered stars: 1 amine (or outer) side, 2 acyl side, 3 side chain; on linkers, the order of the positions; unused ones are H or OH. Bridge positions count the residues as written; N and C are the ends. Square brackets hold non-standard residues; d marks the D form. Side chains are listed from the residue outwards. Peptide text beside a SMILES is read from it. * marks the point of attachment. ξ: configuration not given here. Acetyl(4-DOTA-piperazinyl) = O=C(O)CN1CCN(CC(=O)O)CCN(CC(=O)N2CCN(CC(=O)*)CC2)CCN(CC(=O)O)CC1; DOTA = O=C(O)CN1CCN(CC(=O)O)CCN(CC(=O)*)CCN(CC(=O)O)CC1; Azetidine3carboxylic = O=C(C1CN([*:1])C1)[*:2]; mXylylene = c1cc(C[*:1])cc(C[*:2])c1; Cha = N[C@@H](CC1CCCCC1)C(=O)O; Dab = NCC[C@H](N)C(=O)O; Dap = NC[C@H](N)C(=O)O; Aoc = NCCCCCCCC(=O)O; CO = O=C([*:1])[*:2]; ξP = O=C(O)C1CCCN1; ξC = NC(CS)C(=O)O; NHBu = CCCCN*

*Q* Name the recorded pIC50 for CCCCNC(=O)N[C@H]1CSCc2cccc(c2)CSCC(C(=O)N[C@@H](CCNC(=O)CCCCCCCNC(=O)CN2CCN(CC(=O)O)CCN(CC(=O)O)CCN(CC(=O)O)CC2)C(=O)O)NC(=O)[C@H](CC2CCCCC2)NC(=O)[C@H](CCC(N)=O)NC(=O)[C@H]([C@@H](C)O)NC(=O)C2CCCN2C(=O)C2CN(C2)C1=O (stereo partly drawn) [JHDC53] ({NHBu-CO}-C[Azetidine3carboxylic][ξP]TQ[Cha][ξC][Dab]([Aoc-DOTA])-OH; linker 1-7 via mXylylene) .
*A* > 8.00

*Q* Name the recorded pIC50 for CCCCNC(=O)N[C@H]1CSCc2cccc(c2)CSCC(C(=O)N[C@@H](CNC(=O)CN2CCN(C(=O)CN3CCN(CC(=O)O)CCN(CC(=O)O)CCN(CC(=O)O)CC3)CC2)C(=O)O)NC(=O)[C@H](CC2CCCCC2)NC(=O)[C@H](CCC(N)=O)NC(=O)[C@H]([C@@H](C)O)NC(=O)C2CCCN2C(=O)C2CN(C2)C1=O (stereo partly drawn) [JHDC47] ({NHBu-CO}-C[Azetidine3carboxylic][ξP]TQ[Cha][ξC][Dap](Acetyl(4-DOTA-piperazinyl))-OH; linker 1-7 via mXylylene) .
*A* > 8.00

Now consider the entry below.
*Q* Name the recorded pIC50 for CCCCCC(=O)N[C@H]1CSCc2cccc(c2)CSC[C@@H](C(=O)N[C@@H](CCC(=O)NCCNC(=O)CN2CCN(CC(=O)O)CCN(CC(=O)O)CCN(CC(=O)O)CC2)C(=O)O)NC(=O)[C@H](Cc2ccccc2)NC(=O)[C@H](CCC(N)=O)NC(=O)[C@H]([C@@H](C)O)NC(=O)[C@@H]2CCCN2C(=O)C2CN(C2)C1=O .
*A* > 8.00

Hello, the source for this data is patent US20260274894A1, in case you need it.
